assay: qHTS of pediatric cancer cell lines to identify multiple opportunities for drug repurposing: Primary screen for Saos-2 cells (AID 1347097); conditions: Saos-2 viability, CellTiter-Glo ATP luminescence, 48 h; series mostly up to 46 µM; also: nearly all actives have a fitted effect of over 40% in size
Records with an inconclusive call do not appear. Activity calls are given as the source filed them. Calls follow the shape of the dose curve; as a rule, active = well fitted cell-killing curve with a large enough effect; inconclusive = small, poorly fitted or top-dose-only effect; inactive = no such curve, though single readings can be large or run the other way.
Outcomes: active, inactive

>  <molecule>
CCCCCCCCCC(CC)c1ccc(S(=O)(=O)O)cc1 (stereo not drawn)

>  <labelValue>
active

$$$$
>  <molecule>
CN1CCN(c2ccc([N+](=O)[O-])c3no[n+]([O-])c23)CC1

>  <labelValue>
active

$$$$
>  <molecule>
Oc1ccc2c3c1O[C@H]1c4[nH]c5c(c4C[C@@]4(O)[C@@H](C2)N(CC2CC2)CC[C@]314)C[C@@]1(O)[C@H]2Cc3ccc(O)c4c3[C@@]1(CCN2CC1CC1)[C@H]5O4

>  <labelValue>
inactive

$$$$
>  <molecule>
C1=C2CCCN[C@H]2[C@@H]2C[C@H]1[C@@H]1CCCCN1C2

>  <labelValue>
inactive

$$$$
>  <molecule>
CCN(CC)C(=O)c1ccc(C2=CC3(CCNCC3)Oc3cccc(O)c32)cc1

>  <labelValue>
inactive

$$$$
>  <molecule>
CC(Cc1ccc(O)cc1)NCC(O)c1cc(O)cc(O)c1 (stereo not drawn)

>  <labelValue>
inactive

$$$$
>  <molecule>
O=[N+]([O-])c1ccc([As](=O)(O)O)cc1

>  <labelValue>
inactive

$$$$
>  <molecule>
CCCN1CCO[C@@H]2c3cc(O)ccc3OC[C@@H]21

>  <labelValue>
inactive

$$$$
>  <molecule>
O=[N+]([O-])c1c(Cl)c(Cl)cc(Cl)c1Cl

>  <labelValue>
inactive

$$$$
>  <molecule>
Cc1ccccc1-n1c(Cn2cnc3c(N)ncnc32)nc2cccc(C)c2c1=O

>  <labelValue>
active

$$$$
>  <molecule>
CCOP(=O)(NC(C)C)Oc1ccc(SC)c(C)c1 (stereo not drawn)

>  <labelValue>
inactive

$$$$
>  <molecule>
COc1ccc(CC2NCCc3cc(OC)c(OC)cc32)cc1OC (stereo not drawn)

>  <labelValue>
inactive

$$$$
>  <molecule>
CC(C)[C@]12O[C@@H]1[C@@H]1O[C@]13[C@]1(O[C@H]1C[C@@H]1C4=C(CC[C@@]13C)C(=O)OC4)[C@H]2O

>  <labelValue>
active

$$$$
>  <molecule>
O=C(O)C(Cl)Cl

>  <labelValue>
inactive

$$$$
>  <molecule>
CCCCOC(=O)c1ccccc1C(=O)OCc1ccccc1

>  <labelValue>
inactive

$$$$
>  <molecule>
Cc1ccccc1-n1c(Cn2ncc3c(N)ncnc32)nc2cccc(C)c2c1=O

>  <labelValue>
active

$$$$
>  <molecule>
C[C@@H]1CC[C@H]2[C@@H](C)C(=O)O[C@@H]3O[C@@]4(C)CC[C@H]1[C@]32OO4

>  <labelValue>
inactive

$$$$
>  <molecule>
COc1ccc2c(c[n+](C)c3c4cc5c(cc4ccc23)OCO5)c1OC

>  <labelValue>
active

$$$$
>  <molecule>
CCCCCC[C@H]1C(=O)O[C@H](C)[C@H](NC(=O)c2cccc(NC=O)c2O)C(=O)O[C@@H](C)[C@@H]1OC(=O)CC(C)C

>  <labelValue>
active

$$$$
>  <molecule>
C1CCC(NC2CCCCC2)CC1

>  <labelValue>
inactive

$$$$
>  <molecule>
CSCC[C@@H](NC(=O)[C@@H](Cc1ccccc1)NC(=O)CNC(=O)CNC(=O)[C@@H](N)Cc1ccc(O)cc1)C(=O)O

>  <labelValue>
inactive

$$$$
>  <molecule>
C=CC(=O)NCNC(=O)C=C

>  <labelValue>
inactive

$$$$
>  <molecule>
O=[N+]([O-])c1ncc[nH]1

>  <labelValue>
inactive

$$$$
>  <molecule>
CC=C(C)C(=O)O[C@H]1C(C)=C2[C@@H]3OC(=O)[C@@](C)(O)[C@@]3(O)[C@@H](OC(=O)CCC)C[C@](C)(OC(C)=O)[C@@H]2[C@@H]1OC(=O)CCCCCCC

>  <labelValue>
active

$$$$
>  <molecule>
CC(C)(C)NC[C@H](O)c1ccc(O)cc1Cl

>  <labelValue>
inactive

$$$$
>  <molecule>
O=C1CCC[C@@H]2[C@H]3CCCN4CCC[C@@H](CN12)[C@@H]34

>  <labelValue>
inactive

$$$$
>  <molecule>
CCOP(=O)(OCC)C(C)NC(=O)N(CCCl)N=O (stereo not drawn)

>  <labelValue>
inactive

$$$$
>  <molecule>
CC(O)CN1CCN(CC(=O)[O-])CCN(CC(=O)[O-])CCN(CC(=O)[O-])CC1.[Gd+3] (stereo not drawn)

>  <labelValue>
inactive

$$$$
